This collection of values is drawn from patent US6358885B1.

# Test system: chickweed
# procedure details: Test B preemergence/postemergence greenhouse plant response rating 0 to 10
# Assay type: in vivo, Stellaria media
# conditions used: POSTEMERGENCE, Rate 200 g/ha; 0 to 10 scale
Listed next: entries and their corresponding Plant response rating, Chickweed.
parameter: Plant response rating, Chickweed

INSERT INTO results (molecule, observed_result) VALUES
  ('CC(C)OC(=O)COc1cc(-c2nn3c(c2Cl)CCCC3)c(F)cc1Cl [Compound 39]', 10),
  ('Fc1cc(Cl)c(OCc2ccccc2)cc1-c1nn2c(c1Cl)CCCC2 [Compound 22]', 7),
  ('C=C(Cl)COc1cc(-c2nn3c(c2Cl)CCCC3)c(F)cc1Cl [Compound 40]', 10),
  ('CC(C)Oc1cc(-c2nn3c(c2Cl)CCCC3)c(F)cc1Cl [Compound 21]', 7),
  ('Fc1cc(Cl)c(OC2CCCC2)cc1-c1nn2c(c1Cl)CCCC2 [Compound 24]', 9),
  ('Fc1cc(Cl)c(-c2ccccc2)cc1-c1nn2c(c1Cl)CCCC2 [Compound 46]', 3);

----------
Below, each entry is listed alongside its reported Plant response rating, Wheat.
# Test system: wheat
# procedure details: Test B preemergence/postemergence greenhouse plant response rating 0 to 10
# Assay type: in vivo, Triticum aestivum
# conditions used: Rate 200 g/ha, POSTEMERGENCE; 0 to 10 scale
# Excerpt: Seeds of barley (Hordeum vulgare), barnyardgrass (Echinochloa crus-galli), bedstraw (Galium aparine), blackgrass (Alopecurus myosuroides), […] […] Treated plants and controls were maintained in a greenhouse for twelve to sixteen days, after which all species were compared to controls and visually evaluated. […]
parameter: Plant response rating, Wheat

INSERT INTO measurements (molecule, observed_result) VALUES
  ('COc1cc(-c2nn3c(c2Cl)CCCC3)c(F)cc1Cl [Compound 29]', 6),
  ('CC(=O)c1cc(-c2nn3c(c2Cl)CCCC3)c(F)cc1Cl [Compound 45]', 8),
  ('O=C1COc2cc(F)c(-c3nn4c(c3Br)CCCC4)cc2N1 [Compound 80]', 4),
  ('Clc1ccc(-c2nn3c(c2Cl)CCCC3)c(Cl)c1 [Compound 35]', 5),
  ('CC(C)(C)C(=O)COc1cc(-c2nn3c(c2Cl)CCCC3)c(Cl)cc1Cl [Compound 77]', 5),
  ('CC(C)Oc1cc(-c2nn3c(c2Cl)CCCC3)c(Cl)cc1Cl [Compound 70]', 5),
  ('Oc1cc(-c2nn3c(c2Br)CCCC3)c(F)cc1Cl [Compound 81]', 4),
  ('CCOC(=O)COc1cc(-c2nn3c(c2Cl)CCCC3)c(F)cc1Cl [Compound 42]', 5),
  ('CCOCOc1cc(-c2nn3c(c2Cl)CCCC3)c(F)cc1Cl [Compound 59]', 6),
  ('C#CC(C)Oc1cc(-c2nn3c(c2Br)CCCC3)c(F)cc1Cl (stereo not shown) [Compound 66]', 5),
  ('COCOc1cc(-c2nn3c(c2Br)CCCC3)c(F)cc1Cl [Compound 65]', 5),
  ('Fc1cc(Cl)c(-c2ccccc2)cc1-c1nn2c(c1Cl)CCCC2 [Compound 46]', 3),
  ('CCC(=O)Oc1cc(-c2nn3c(c2Cl)CCCC3)c(F)cc1Cl [Compound 47]', 6),
  ('C=CCOc1cc(-c2nn3c(c2Cl)CCCC3)c(Cl)cc1Cl [Compound 71]', 6),
  ('CC(C)COc1cc(-c2nn3c(c2Cl)CCCC3)c(F)cc1Cl [Compound 30]', 5),
  ('FCCCOc1cc(-c2nn3c(c2Cl)CCCC3)c(F)cc1Cl [Compound 79]', 6);
